read-out: Bcl-2 (BAD) gene, BAD (gene 572); assay: LTEA_HepaRG_BAD: Life Technologies and Expression Analysis (LTEA) Assay for Bcl-2 (BAD) gene using HepaRG (AID 2283469); conditions: mRNA level, 48 h; actives raise or lower the signal
Calls of active or inactive are those of the source. Rule for the calls: active = hit-call score of the fitted dose curve at least 0.9, where 1 is the maximum; inactive = score below 0.9.
The reply should name one outcome from active, inactive

Ask: How did this test come out for "CCc1nn(C)c(C(=O)NCc2ccc(C(C)(C)C)cc2)c1Cl" ?
Result: inactive

Ask: How did this test come out for "CN(C)C(=S)SSC(=S)N(C)C" ?
Result: inactive

Ask: How did this test come out for "COC(=O)C=C(C)OP(=O)(OC)OC" ?
Result: inactive

Ask: How did this test come out for "CON(C)C(=O)Nc1ccc(Cl)c(Cl)c1" ?
Result: inactive

Ask: How did this test come out for "Fc1ccc(Oc2ccnc3cc(Cl)cc(Cl)c23)cc1" ?
Result: inactive

Ask: How did this test come out for "CC(C)(C)c1ccc(CSc2cnn(C(C)(C)C)c(=O)c2Cl)cc1" ?
Result: inactive

Ask: How did this test come out for "CO/C=C(/C(=O)OC)c1ccccc1Oc1cc(Oc2ccccc2C#N)ncn1" ?
Result: inactive

Ask: How did this test come out for COC(=O)C(C)Oc1ccc(Oc2ccc(Cl)cc2Cl)cc1 (stereo unspecified) ?
Result: inactive

Ask: How did this test come out for "COC(=O)N(OC)c1ccccc1COc1ccn(-c2ccc(Cl)cc2)n1" ?
Result: inactive

Ask: How did this test come out for "Cc1cc(Cl)ccc1OCC(=O)O" ?
Result: inactive

Ask: How did this test come out for "C=CCC1=C(C)[C@@H](OC(=O)[C@@H]2[C@@H](C=C(C)C)C2(C)C)CC1=O" ?
Result: inactive

Ask: How did this test come out for "CCOP(=S)(OCC)SCn1c(=O)oc2cc(Cl)ccc21" ?
Result: inactive

Ask: How did this test come out for CCOC(=O)C(Cl)Cc1cc(-n2nc(C)n(C(F)F)c2=O)c(F)cc1Cl (stereo unspecified) ?
Result: inactive

Ask: How did this test come out for "COC(=O)c1ccccc1C(=O)OC" ?
Result: inactive

Ask: How did this test come out for "CNC(=O)ON=CC(C)(C)SC" ?
Result: inactive

Ask: How did this test come out for "O=C(O)COc1nc(Cl)c(Cl)cc1Cl" ?
Result: inactive

Ask: How did this test come out for "O=C(Nc1ccccc1)Nc1ccnc(Cl)c1" ?
Result: active

Ask: How did this test come out for "CC1=C(C(=O)Nc2ccccc2)SCCO1" ?
Result: inactive

Ask: How did this test come out for C=CC1(C)OC(=O)N(c2cc(Cl)cc(Cl)c2)C1=O (stereo unspecified) ?
Result: inactive

Ask: How did this test come out for CCOC(=O)CC(SP(=S)(OC)OC)C(=O)OCC (stereo unspecified) ?
Result: inactive

Ask: How did this test come out for "CCOc1cc(Oc2ccc(C(F)(F)F)cc2Cl)ccc1[N+](=O)[O-]" ?
Result: inactive

Ask: How did this test come out for "CCNc1nc(Cl)nc(NCC)n1" ?
Result: inactive

Ask: How did this test come out for "CC(C)Oc1cc(-n2nc(C(C)(C)C)oc2=O)c(Cl)cc1Cl" ?
Result: inactive

Ask: How did this test come out for CC(Oc1ccc(Cl)cc1Cl)C(=O)O (stereo unspecified) ?
Result: inactive

Ask: How did this test come out for "CNC(=S)S" ?
Result: inactive

Ask: How did this test come out for OC(c1ccc(Cl)cc1)(c1cncnc1)c1ccccc1Cl (stereo unspecified) ?
Result: inactive

Ask: How did this test come out for "CCCCNC(=O)n1c(NC(=O)OC)nc2ccccc21" ?
Result: inactive

Ask: How did this test come out for "O=C(O)c1nc(Cl)ccc1Cl" ?
Result: inactive

Ask: How did this test come out for CCON=C(CC)C1=C(O)CC(c2c(C)cc(C)cc2C)CC1=O (stereo unspecified) ?
Result: inactive

Ask: How did this test come out for CCCC1COC(Cn2cncn2)(c2ccc(Cl)cc2Cl)O1 (stereo unspecified) ?
Result: inactive

Ask: How did this test come out for "CCCCNC(=O)OCC#CI" ?
Result: inactive

Origin of the recorded values: PubChem BioAssay (EPA / NIEHS)
